- System Tested: T1, free FIXa (activated Factor IX) (human, UniProt P00740 47-191; P00740 227-461)
- T1 construct: BLI antigen bought from Haematologic Technologies (HCIXA-0050); also called factor IXa
- Method: BLI; class meaning: paragraph 914

Binder	binding result
BIIB-9-885 (antibody, V domains shown, IgG) VH: QVQLVQSGAEVKKPGASVKVSCKASGYTFTSYYMHWVRQAPGQGLEWMGIINPSGGSTSYAQKFQGRVTMTRDTSTSTVYMELSSLRSEDTAVYYCAREGPMLDYPTYSNWFDPWGQGTLVTVSS VL: EIVLTQSPATLSLSPGERATLSCRASQSVSSYLAWYQQKPGQAPRLLIYDASKRATGIPARFSGSGSGTDFTLTISSLEPEDFAVYYCQQRVIWPPTFGGGTKVEIK	binds
BIIB-9-439 (antibody, V domains shown, IgG) VH: QVQLVQSGAEVKKPGASVKVSCKASGYTFTSYYMHWVRQAPGQGLEWMGIINPSGGSTTYAQKFQGRVTMTRDTSTSTVYMELSSLRSEDTAVYYCAREATESYYYMDVWGKGTTVTVSS VL: EIVMTQSPATLSLSPGERATLSCRASQSVSSYLAWYQQKPGQAPRLLIYDSSNRATGIPARFSGSGSGTDFTLTISSLEPEDFAVYYCQQRDNWPFTFGGGTKVEIK	binds
BIIB-9-888 (antibody, V domains shown, IgG) VH: QVQLVQSGAEVKKPGASVKVSCKASGYTFTSYYMHWVRQAPGQGLEWMGIINPSGGSTSYAQKFQGRVTMTRDTSTSTVYMELSSLRSEDTAVYYCARGPTDSSGYLDMDVWGKGTTVTVSS VL: EIVMTQSPATLSVSPGERATLSCRASQSVSSNLAWYQQKPGQAPRLLIYGASTRATGIPARFSGSGSGTEFTLTISSLQPEDFAVYYCQQAFNWPPTFGGGTKVEIK	binds
